Target: Torsin-1A (Homo sapiens) (UniProt O14656)
Sequence (O14656 whole entry, looked up): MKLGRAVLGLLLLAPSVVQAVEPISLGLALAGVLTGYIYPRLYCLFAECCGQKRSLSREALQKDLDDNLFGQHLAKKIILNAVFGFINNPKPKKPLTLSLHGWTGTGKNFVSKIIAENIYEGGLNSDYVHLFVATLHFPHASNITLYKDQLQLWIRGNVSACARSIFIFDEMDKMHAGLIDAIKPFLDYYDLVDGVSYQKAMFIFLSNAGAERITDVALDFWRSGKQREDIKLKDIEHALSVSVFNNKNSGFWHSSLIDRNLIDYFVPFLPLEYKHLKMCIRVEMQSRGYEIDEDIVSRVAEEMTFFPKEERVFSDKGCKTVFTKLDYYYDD
Experiment: torsin A mutant lysate binding on microarrays – cell lysate, small-molecule microarray, COS7 lysate, 635/667 nm fluorescence, primary screen (AID 1150);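 note: score pools 667 nm emission and signal to noise measuring lysate protein binding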
Conditions: COS7 hTOR1A mutant lysate, 635 nm fluorescence, higher = more signal
Would you please tag the item criterion met when its composite z-score is 0.3 or above, and criterion not met when it is below?

- COMPOUND: "COC(=O)[C@@]1(Cc2ccc(OC)cc2)[C@H]2c3cc(C(=O)N4CCCC4)n(CCc4c[nH]c5ccc(O)cc45)c3C[C@H]2CN1C(=O)c1ccccc1"
  GROUP: "criterion met"
- COMPOUND: "COc1ccc([Si](C)(C)[C@H]2[C@H](CC(=O)N3CCC[C@H]3CO)O[C@@]3(C(=O)N(Cc4ccc(N5CCOC5=O)cc4)c4ccccc43)[C@@H]2C)cc1"
  GROUP: "criterion met"
- COMPOUND: "[N-]=[N+]=Nc1ccccc1[C@H]1OC(c2ccc(OCCCO)cc2)=N[C@@]1(Cc1ccccc1)C(=O)NCCN1CCOCC1"
  GROUP: "criterion not met"
- COMPOUND: "C=CCC(OC(C)=O)[C@@H]1[C@@H](N(Cc2ccc(-c3ccccc3)cc2)C(=O)c2ccc(-c3ccccc3)cc2)c2cc(OCCCO)ccc2N1C(=O)c1ccc2ccccc2c1 (some centres undefined)"
  GROUP: "criterion not met"
- COMPOUND: "COCCOC(=O)N1C(=O)[C@@]2(c3cc(C#CCCO)ccc31)[C@H](C(=O)Nc1nc3ccccc3s1)[C@H]1C(=O)O[C@H](c3ccccc3)[C@H](c3ccccc3)N1[C@@H]2c1ccc(O)cc1"
  GROUP: "criterion met"
- COMPOUND: "COC(=O)[C@@]1(Cc2ccc(OC)cc2)[C@H]2c3cc(C(=O)N4CCCC4)n(CCc4c[nH]c5ccc(OC)cc45)c3C[C@H]2CN1C(=O)c1ccccc1"
  GROUP: "criterion met"
- COMPOUND: "CC1CC/C=C\\[C@H]2OC34C=CCN(c5ccc(Cl)cc5)C(=O)[C@H]3N(C(C)CO)C(=O)[C@]4(C)C2C(=O)O1 (some centres undefined)"
  GROUP: "criterion not met"
- COMPOUND: "CCOC(=O)C[C@H]1[C@H](OC(=O)c2ccc(-c3ccccc3)cc2)[C@@H](NC(=O)CC(C)C)c2cc(OCCCO)ccc2N1C(=O)c1ccc2ccccc2n1"
  GROUP: "criterion met"
- COMPOUND: "COCCOC(=O)N1C(=O)[C@@]2(c3ccccc31)[C@H](c1ccc(O)cc1)N1[C@H](c3ccccc3)[C@H](c3ccccc3)OC(=O)[C@H]1[C@@H]2C(=O)N1CCN(c2ncccn2)CC1"
  GROUP: "criterion met"
- COMPOUND: "C[N+](C)(C)CCCCCCNC(=O)[C@@H]1C[C@@H]2C(=O)N3CCC[C@H]3C(=O)N2[C@@H]1c1ccc(O)cc1"
  GROUP: "criterion met"
- COMPOUND: "CCCC[C@@H](O)C1=C(COc2ccccc2)C[C@H]2C(=O)N(Cc3ccccc3)C(=O)[C@H]2[C@H]1CO"
  GROUP: "criterion not met"
- COMPOUND: "CCCCC[C@H]1OC[C@@]23C=C(Br)[C@@H](CC12)[C@@]1(CO1)C3=O (some centres undefined)"
  GROUP: "criterion not met"
- COMPOUND: "COc1cc2c(cc1O)C(c1ccc(CN3CCCC3)cc1)N(Cc1cc3c(cc1Br)OCO3)CC2 (centres undefined)"
  GROUP: "criterion met"
- COMPOUND: "CC1CC/C=C\\[C@H]2OC34C=CCN(C(C)(C)C)C(=O)[C@H]3N(CCCCCO)C(=O)[C@@H]4C2C(=O)O1 (some centres undefined)"
  GROUP: "criterion not met"
